B1: SPATS1 (parent)
chain: GRKKYDIDPRNGIPKLTPGDNPYM

# Variants of: B1
# ASSAY SUMMARY: protein stability index of a GFP-peptide fusion (GPS, HEK-293T) (PSI 1-6); higher = more stable;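 also: lentivirally expressed fusions sorted by FACS into six bins by GFP to DsRed ratio, PSI derived from sequencing read proportions per bin multiplied by bin number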
# CONDITION PARAMETERS: c terminus: a fixed tail appended
METRIC NAME: protein stability index
Response field accepts a number only; no unit should be typed.

Look up protein stability index: Y5R
4.07

Look up protein stability index: L16A
4.09

Look up protein stability index: T17S
4.08

Look up protein stability index: N21G
3.96

Look up protein stability index: L16D
4.11

Look up protein stability index: L16V
4

Look up protein stability index: P22A
4.01

Look up protein stability index: R10K
3.92

Look up protein stability index: L16Q
4.08

Look up protein stability index: P18E
3.92

Look up protein stability index: I7C
3.93

Look up protein stability index: M24N
4.11
